- TEST_NAME: Drug metabolism in dog assessed as parent compound level in urine
- Format: ADME, Canis lupus familiaris
- TEST_PARAMETERS: read-out: Drug excretion

MOLECULE	dose excreted
COc1cc2nc(N3CCN(C(=O)c4ccco4)CC3)nc(N)c2cc1OC.Cl [PRAZOSIN HYDROCHLORIDE]	6%

###

- TEST_NAME: Drug metabolism in rat assessed as parent compound level in bile
- Type: ADME
- TEST_PARAMETERS: read-out: Drug excretion

COMPOUND	dose excreted, %
COc1cc2nc(N3CCN(C(=O)c4ccco4)CC3)nc(N)c2cc1OC.Cl [PRAZOSIN HYDROCHLORIDE]	6
